Origin of measurements: ChEMBL document CHEMBL2413072

system: SF-539; experiment: Growth inhibition of human SF539 cells assessed as cell growth at 10 uM by sulforhodamine B assay; assay type: functional; conditions: read-out: Activity
Assign growth at 10 µM to each entry below.
Numbers only, in %.

Some molecules with recorded growth at 10 µM:
molecule	metric name	value
CC(C)=CC(=O)O[C@@H]1CC(C)(C)C[C@H]2C3=CC[C@@H]4[C@@]5(C)CC[C@H](O)C(C)(C)[C@@H]5CC[C@@]4(C)[C@]3(C)CC[C@@]12C(=O)O [Reduced Lantadene B]	growth at 10 µM	54.7
C/C=C(/C)C(=O)O[C@@H]1CC(C)(C)C[C@H]2C3=CC[C@@H]4[C@@]5(C)CCC(=O)C(C)(C)[C@@H]5CC[C@@]4(C)[C@]3(C)CC[C@@]12C(=O)O [LANTADENE A]	growth at 10 µM	78.2

Challenge: So what's the measured growth at 10 µM for this one? C/C=C(/C)C(=O)O[C@@H]1CC(C)(C)C[C@H]2C3=CC[C@@H]4[C@@]5(C)CC[C@H](O)C(C)(C)[C@@H]5CC[C@@]4(C)[C@]3(C)CC[C@@]12C(=O)O [Reduced Lantadene A]
Response given: 43

====

test: Growth inhibition of human NCI-ADR-RES cells by sulforhodamine B assay; format: functional; conditions: read-out: pLC50 (the source's name) (converted)
Assign CC50 to each entry below.

entry smiles	value
C/C=C(/C)C(=O)O[C@@H]1CC(C)(C)C[C@H]2C3=CC[C@@H]4[C@@]5(C)CCC(=O)C(C)(C)[C@@H]5CC[C@@]4(C)[C@]3(C)CC[C@@]12C(=O)O	> 100 µM
CC1(C)C[C@@H](O)[C@]2(C(=O)O)CC[C@]3(C)C(=CC[C@@H]4[C@@]5(C)C/C(=C\C=C\c6ccccc6)C(=O)C(C)(C)[C@@H]5CC[C@]43C)[C@@H]2C1	43.7 µM
C/C=C(/C)C(=O)O[C@@H]1CC(C)(C)C[C@H]2C3=CC[C@@H]4[C@@]5(C)CC[C@H](O)C(C)(C)[C@@H]5CC[C@@]4(C)[C@]3(C)CC[C@@]12C(=O)O	> 100 µM
CC(C)=CC(=O)O[C@@H]1CC(C)(C)C[C@H]2C3=CC[C@@H]4[C@@]5(C)CC[C@H](O)C(C)(C)[C@@H]5CC[C@@]4(C)[C@]3(C)CC[C@@]12C(=O)O	> 100 µM

// next item, CC50 requested
Challenge: So what's the measured CC50 for this one? `CC(C)=CC(=O)O[C@@H]1CC(C)(C)C[C@H]2C3=CC[C@@H]4[C@@]5(C)CCC(=O)C(C)(C)[C@@H]5CC[C@@]4(C)[C@]3(C)CC[C@@]12C(=O)O`
Response given: > 100 µM

====

Assign GI50 to each entry below.
tested on: OVCAR-4; test: Growth inhibition of human OVCAR4 cells by sulforhodamine B assay; format: functional; settings: read-out: pGI50 (converted)
Could you write the number and then its unit?

compound	value
CC1(C)C[C@@H](O)[C@]2(C(=O)O)CC[C@]3(C)C(=CC[C@@H]4[C@@]5(C)C/C(=C\C=C\c6ccccc6)C(=O)C(C)(C)[C@@H]5CC[C@]43C)[C@@H]2C1	3.89 µM
CC(C)=CC(=O)O[C@@H]1CC(C)(C)C[C@H]2C3=CC[C@@H]4[C@@]5(C)CC[C@H](O)C(C)(C)[C@@H]5CC[C@@]4(C)[C@]3(C)CC[C@@]12C(=O)O [Reduced Lantadene B]	8.51 µM
C/C=C(/C)C(=O)O[C@@H]1CC(C)(C)C[C@H]2C3=CC[C@@H]4[C@@]5(C)CCC(=O)C(C)(C)[C@@H]5CC[C@@]4(C)[C@]3(C)CC[C@@]12C(=O)O [LANTADENE A]	5.62 µM
CC(C)=CC(=O)O[C@@H]1CC(C)(C)C[C@H]2C3=CC[C@@H]4[C@@]5(C)CCC(=O)C(C)(C)[C@@H]5CC[C@@]4(C)[C@]3(C)CC[C@@]12C(=O)O	5.01 µM

// next item, GI50 requested
Challenge: So what's the measured GI50 for this one? C/C=C(/C)C(=O)O[C@@H]1CC(C)(C)C[C@H]2C3=CC[C@@H]4[C@@]5(C)CC[C@H](O)C(C)(C)[C@@H]5CC[C@@]4(C)[C@]3(C)CC[C@@]12C(=O)O [Reduced Lantadene A]
Response given: 1.78 µM

====

system: NCI-H460; experiment: Growth inhibition of human NCI-H460 cells assessed as cell growth at 10^-6 M by sulforhodamine B assay; format: functional; conditions: read-out: Activity
Assign growth at 1 µM to each entry below.
Give bare numbers, in %.

Some compounds with recorded growth at 1 µM:
compound	metric name	value
C/C=C(/C)C(=O)O[C@@H]1CC(C)(C)C[C@H]2C3=CC[C@@H]4[C@@]5(C)CCC(=O)C(C)(C)[C@@H]5CC[C@@]4(C)[C@]3(C)CC[C@@]12C(=O)O [LANTADENE A]	growth at 1 µM	92
C/C=C(/C)C(=O)O[C@@H]1CC(C)(C)C[C@H]2C3=CC[C@@H]4[C@@]5(C)CC[C@H](O)C(C)(C)[C@@H]5CC[C@@]4(C)[C@]3(C)CC[C@@]12C(=O)O [Reduced Lantadene A]	growth at 1 µM	89
CC1(C)C[C@@H](O)[C@]2(C(=O)O)CC[C@]3(C)C(=CC[C@@H]4[C@@]5(C)C/C(=C\C=C\c6ccccc6)C(=O)C(C)(C)[C@@H]5CC[C@]43C)[C@@H]2C1	growth at 1 µM	97
CC(C)=CC(=O)O[C@@H]1CC(C)(C)C[C@H]2C3=CC[C@@H]4[C@@]5(C)CC[C@H](O)C(C)(C)[C@@H]5CC[C@@]4(C)[C@]3(C)CC[C@@]12C(=O)O [Reduced Lantadene B]	growth at 1 µM	78

// next item, growth at 1 µM requested
Challenge: So what's the measured growth at 1 µM for this one? `CC(C)=CC(=O)O[C@@H]1CC(C)(C)C[C@H]2C3=CC[C@@H]4[C@@]5(C)CCC(=O)C(C)(C)[C@@H]5CC[C@@]4(C)[C@]3(C)CC[C@@]12C(=O)O`
Response given: 71

====

tested on: K562; experiment: Growth inhibition of human K562 cells assessed as cell growth at 10^-4 M by sulforhodamine B assay; format: functional; details: read-out: Activity
metric name: growth at 100 µM (%)
One number for each entry, in %.

Some compounds with recorded growth at 100 µM:
compound	measured on	value
CC(C)=CC(=O)O[C@@H]1CC(C)(C)C[C@H]2C3=CC[C@@H]4[C@@]5(C)CC[C@H](O)C(C)(C)[C@@H]5CC[C@@]4(C)[C@]3(C)CC[C@@]12C(=O)O [Reduced Lantadene B]	K562	-1
CC1(C)C[C@@H](O)[C@]2(C(=O)O)CC[C@]3(C)C(=CC[C@@H]4[C@@]5(C)C/C(=C\C=C\c6ccccc6)C(=O)C(C)(C)[C@@H]5CC[C@]43C)[C@@H]2C1	K562	1
C/C=C(/C)C(=O)O[C@@H]1CC(C)(C)C[C@H]2C3=CC[C@@H]4[C@@]5(C)CCC(=O)C(C)(C)[C@@H]5CC[C@@]4(C)[C@]3(C)CC[C@@]12C(=O)O [LANTADENE A]	K562	28
C/C=C(/C)C(=O)O[C@@H]1CC(C)(C)C[C@H]2C3=CC[C@@H]4[C@@]5(C)CC[C@H](O)C(C)(C)[C@@H]5CC[C@@]4(C)[C@]3(C)CC[C@@]12C(=O)O [Reduced Lantadene A]	K562	-2

// next item, growth at 100 µM requested
Challenge: So what's the measured growth at 100 µM for this one? `CC(C)=CC(=O)O[C@@H]1CC(C)(C)C[C@H]2C3=CC[C@@H]4[C@@]5(C)CCC(=O)C(C)(C)[C@@H]5CC[C@@]4(C)[C@]3(C)CC[C@@]12C(=O)O`
Response given: 15

====

system: NCI-H226; experiment: Growth inhibition of human NCI-H226 cells assessed as cell growth at 10^-7 M by sulforhodamine B assay; assay type: functional; conditions: read-out: Activity
Assign growth at 0.1 µM to each entry below.
Give bare numbers, in %.

Some molecules with recorded growth at 0.1 µM:
molecule	uom	growth at 0.1 µM
CC(C)=CC(=O)O[C@@H]1CC(C)(C)C[C@H]2C3=CC[C@@H]4[C@@]5(C)CCC(=O)C(C)(C)[C@@H]5CC[C@@]4(C)[C@]3(C)CC[C@@]12C(=O)O	%	87
CC(C)=CC(=O)O[C@@H]1CC(C)(C)C[C@H]2C3=CC[C@@H]4[C@@]5(C)CC[C@H](O)C(C)(C)[C@@H]5CC[C@@]4(C)[C@]3(C)CC[C@@]12C(=O)O [Reduced Lantadene B]	%	88
C/C=C(/C)C(=O)O[C@@H]1CC(C)(C)C[C@H]2C3=CC[C@@H]4[C@@]5(C)CC[C@H](O)C(C)(C)[C@@H]5CC[C@@]4(C)[C@]3(C)CC[C@@]12C(=O)O [Reduced Lantadene A]	%	94
C/C=C(/C)C(=O)O[C@@H]1CC(C)(C)C[C@H]2C3=CC[C@@H]4[C@@]5(C)CCC(=O)C(C)(C)[C@@H]5CC[C@@]4(C)[C@]3(C)CC[C@@]12C(=O)O [LANTADENE A]	%	81

// next item, growth at 0.1 µM requested
Challenge: So what's the measured growth at 0.1 µM for this one? `CC1(C)C[C@@H](O)[C@]2(C(=O)O)CC[C@]3(C)C(=CC[C@@H]4[C@@]5(C)C/C(=C\C=C\c6ccccc6)C(=O)C(C)(C)[C@@H]5CC[C@]43C)[C@@H]2C1`
Response given: 92
